Target: T1, Recombinant soluble E protein (0.8E-His) from DENV-4 (DENV-4, UniProt P09866 280-674)
T1 construct: also called DENV-4 E protein; DV4
pKd: −log10 of the molar value.

binder	pKd
DG_3CH1047-SG182/3CL658-SK1 (antibody, human IgG1, kappa, V domains shown, also called 3Cam) VH: QVQLVQSGPDVEKPGASVKVSCKASGYTFTSYYMHWVRQAPGQGLEWMGVINPRGGSRRSAQKFQGRITMTRDTSTSTVYMELSSLRSEDTAVYYCARGGEALFYDSYTTPFDGGSWWFDPWGQGSLVTVSS VL: DIQLTQSPSSLSASVGDRVTFTCQASQEIRKYLNWYQQKPGKAPKLLIYDASELKTGVPSRFSGSGSGTDFTFTISSLQPEDVATYYCQQFEDLPITFGQGTRLQIKR	8.04
DG_3CH-SG182/3CL499-SK1 (antibody, V domains shown) VH: QVQLVQSGPDVEKPGASVKVSCKASGYTFTSNYIHWVRQAPGQGLEWMGVINPRGGSTASAQKFQGRITMTRDTSTSTVYMELSSLRSDDTAVYYCARGGRALFYDSYTTPRDGGSWWFDPWGQGSLVTVSS VL: DIQLTQSPSSLSASVGDRVTFTCQASQDIRKYLNWYQQKPGKAPKLLIYDASNLKFGVPSRFSGSGSGTDFTFTISSLQPEDVATYYCQQFDALPITFGQGTRLQIKR	8.08
DG_3CH-SG182/3CL563-SK1 (antibody, V domains shown) VH: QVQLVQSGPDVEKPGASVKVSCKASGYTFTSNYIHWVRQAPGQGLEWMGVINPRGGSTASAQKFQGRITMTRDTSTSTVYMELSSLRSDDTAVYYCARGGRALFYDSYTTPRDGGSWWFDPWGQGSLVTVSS VL: DIQLTQSPSSLSASVGDRVTFTCQASQDIRQYLNWYQQKPGKAPKLLIYDASNLKFGVPSRFSGSGSGTDFTFTISSLQPEDVATYYCQQFSALPITFGQGTRLQIKR	7.93
DG_3CH953-SG182/3CL563-SK1 (antibody, human IgG1, kappa, V domains shown) VH: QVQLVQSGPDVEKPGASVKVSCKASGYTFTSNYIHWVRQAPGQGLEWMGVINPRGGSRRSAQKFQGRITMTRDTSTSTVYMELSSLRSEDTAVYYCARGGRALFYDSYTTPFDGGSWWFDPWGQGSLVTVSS VL: DIQLTQSPSSLSASVGDRVTFTCQASQDIRQYLNWYQQKPGKAPKLLIYDASNLKFGVPSRFSGSGSGTDFTFTISSLQPEDVATYYCQQFSALPITFGQGTRLQIKR	8.09

Hello, the source for this data is patent US20190218277A1, in case you need it.
